tested on: KRAS patient-derived spheroids with HUVEC/MSC, viability; experiment: Anticancer human tumor 323965-272-R-J2-PDC patient-derived pancreatic carcinoma cell line growth inhibition [KRAS2]; settings: curve of first compound; second compound 0.316 µM;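 further: spheroids exposed to agents for 7 days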
pIC50: −log10 of the molar value.

- compound: "CC(C)NCC(C(=O)N1CCN(c2ncnc3c2C(C)CC3O)CC1)c1ccc(Cl)cc1 (stereo not given) + C=CC(=O)N1CCN(c2nc(=O)n(-c3c(C)ccnc3C(C)C)c3nc(-c4c(O)cccc4F)c(F)cc23)C(C)C1"
  inequality.sign: "="
  pIC50: 7.09
- compound: "CC(=O)Nc1cccc(-n2c(=O)n(C3CC3)c(=O)c3c(Nc4ccc(I)cc4F)n(C)c(=O)c(C)c32)c1 + COc1cc2nc(C)nc(NC(C)c3cc(N)cc(C(F)(F)F)c3)c2cc1OC1CCOC1"
  inequality.sign: "="
  pIC50: 9.02
- compound: "CC1COCCN1c1cc(-c2ccnn2C)c2ccnc(-c3ccn[nH]3)c2n1 (stereo not given) + CC1OCC2(CCN(c3cnc(Sc4ccnc(N)c4Cl)c(N)n3)CC2)C1N"
  inequality.sign: ">"
  pIC50: 8.00
- compound: "CC1(C)CCC(CN2CCN(c3ccc(C(=O)NS(=O)(=O)c4ccc(NCC5CCOCC5)c([N+](=O)[O-])c4)c(Oc4cnc5[nH]ccc5c4)c3)CC2)=C(c2ccc(Cl)cc2)C1 + COc1cc2nc(C)nc(NC(C)c3cc(N)cc(C(F)(F)F)c3)c2cc1OC1CCOC1"
  inequality.sign: "="
  pIC50: 5.80
- compound: "CCNC(=O)CC1N=C(c2ccc(Cl)cc2)c2cc(OC)ccc2-n2c(C)nnc21 (stereo not given) + CNCc1ccccc1-c1csc(C(C)Nc2nc(C)nc3cc(OC)c(OC)cc23)c1"
  inequality.sign: "="
  pIC50: 6.48
